Attribution: patent EP2545050B1

- System: HCV replicon
- protocol-details: HCV replicon assay (FRET or luciferase reporter)
- Type: cell-based
- protocol-conditions: Hepatitis C virus; HCV replicon cells; Table 1
- Text: FRET Assay Preparation. To perform the HCV FRET screening assay, 96-well cell culture plates were used. The FRET peptide (Anaspec, Inc.) (Taliani et al., Anal. Biochem. 1996, 240, 60-67) contains a fluorescence donor, EDANS, near one end of the peptide and an acceptor, DABCYL, near the other end. […] Assays. […] The plate was then placed into the Cytoflour 4000 instrument which had been set to 340 excite/490 emission, automatic mode for 20 cycles and the plate read in a kinetic mode. […]
pEC50: −log10 of the molar value.
measurement-type: pEC50

Worked examples follow.
1. CNC(=O)c1c(-c2ccc(F)cc2)nn2ccc(-c3cc(C(=O)NC4(c5ccccn5)CC4)c(OCC4CCOCC4)nc3C)c(F)c12	6.60 to 8.70
2. CNC(=O)c1c(-c2ccc(F)cc2)nn2ccc(-c3cc(C(=O)NC4(c5ccnnc5)CC4)c(OC)cc3C)c(F)c12	5.00 to 6.00
3. CNC(=O)c1c(-c2ccc(F)cc2)nn2ccc(-c3cc(C(=O)NC4(c5cc(F)ccn5)CC4)c(OC)nc3C)c(F)c12	6.60 to 8.70
4. CNC(=O)c1c(-c2ccc(F)cc2)nn2ccc(-c3cc(C(=O)NC4(c5ccccc5)CC4)c(OC)nc3C)c(F)c12	6.60 to 8.70
5. CNC(=O)c1c(-c2ccc(F)cc2)nn2ccc(-c3cc(C(=O)NC4(c5cnccn5)CC4)c(OC)cc3C)c(F)c12	6.60 to 8.70

Would you kindly look at the next entry?
State the recorded pEC50 for this entry: CNC(=O)c1c(-c2ccc(F)cc2)nn2ccc(-c3cc(C(=O)NC4(c5ccccc5)CC4)c(OC(F)F)nc3C)c(F)c12
6.60 to 8.70
